Target or system: recombinant human KLK5 (human) (UniProt Q9Y337)
Sequence (Q9Y337 67-293): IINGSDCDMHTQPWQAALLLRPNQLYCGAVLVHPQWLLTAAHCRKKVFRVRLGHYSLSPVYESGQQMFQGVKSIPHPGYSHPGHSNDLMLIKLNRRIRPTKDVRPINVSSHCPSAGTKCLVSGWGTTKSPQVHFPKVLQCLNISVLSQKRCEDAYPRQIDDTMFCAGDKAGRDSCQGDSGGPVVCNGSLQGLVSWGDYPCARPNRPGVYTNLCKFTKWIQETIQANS
Protocol details: pro-KLK7 coupled assay, 5 nM KLK5, 125 nM pro-KLK7, suc-LLVY-AMC
Recorded IC50 (read off the curve) by entry
Number only, in nM; omit the unit.

8F5 (antibody, V domains shown) VH: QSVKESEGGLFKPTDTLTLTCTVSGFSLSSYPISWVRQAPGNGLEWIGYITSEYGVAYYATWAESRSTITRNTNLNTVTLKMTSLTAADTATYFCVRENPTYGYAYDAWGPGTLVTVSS VL: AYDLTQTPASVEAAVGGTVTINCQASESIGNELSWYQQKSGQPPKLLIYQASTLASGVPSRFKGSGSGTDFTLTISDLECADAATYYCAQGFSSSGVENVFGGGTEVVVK; 0.8

We now examine a further binder.
# IC50 (read off the curve) (binder: 9B6 (antibody, V domains shown) VH: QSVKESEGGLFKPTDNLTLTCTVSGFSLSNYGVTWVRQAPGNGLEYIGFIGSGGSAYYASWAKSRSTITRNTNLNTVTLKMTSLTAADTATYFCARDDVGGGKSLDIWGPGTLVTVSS VL: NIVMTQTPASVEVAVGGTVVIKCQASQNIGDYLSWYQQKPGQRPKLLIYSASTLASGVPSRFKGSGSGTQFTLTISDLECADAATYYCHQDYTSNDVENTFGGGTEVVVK ) is 1
